- system: ZIKV NS2B-NS3 protease (Zika virus, UniProt A0A024B7W1)
- Construct: directed at the co-expressed ZIKV NS2B-NS3 protease
- Sequence (A0A024B7W1 1503-1680): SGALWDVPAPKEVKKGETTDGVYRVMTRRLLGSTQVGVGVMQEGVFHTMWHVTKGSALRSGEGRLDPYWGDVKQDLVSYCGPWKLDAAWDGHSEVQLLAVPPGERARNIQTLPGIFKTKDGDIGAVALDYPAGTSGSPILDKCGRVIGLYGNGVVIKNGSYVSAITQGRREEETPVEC
- Sequence (A0A024B7W1 1425-1464): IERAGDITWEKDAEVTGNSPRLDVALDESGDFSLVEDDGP
- experiment: ZIKV NS2B-NS3 protease biochemical FRET assay
- reported-conditions: ZIKV NS2B-NS3 Ki (uM), library 1, supplement
Listed here: items and their measured Ki.
property-measured: Ki (µM)

1) Cc1c(CN)cccc1NC(=O)c1cc(Cl)cc(NC(=O)OCc2ccccc2)c1 40.1
2) NCCCc1ccc(F)c(NC(=O)c2cc(Cl)cc(NC(=O)OCc3ccccc3)c2)c1 5.63
3) O=C(Nc1cc(Cl)cc(C(=O)Nc2cccc(C3CCNCC3)c2)c1)OCc1ccccc1 11.2
4) O=C(Nc1cc(Cl)cc(C(=O)Nc2ccc3c(c2)CNCCO3)c1)OCc1ccccc1 6.9
5) NC[C@H]1CC[C@H](CNC(=O)c2cc(Cl)cc(NC(=O)OCc3ccccc3)c2)CC1 23.1
6) CNCc1cccc(NC(=O)c2cc(Cl)cc(NC(=O)OCc3ccccc3)c2)c1 17.6
7) C[C@@H](N)c1cccc(NC(=O)c2cc(Cl)cc(NC(=O)OCc3ccccc3)c2)c1 20.4
8) O=C(Nc1cc(Cl)cc(C(=O)Nc2cccc3c2CNC3)c1)OCc1ccccc1 67.8
9) NCc1ccc(CNC(=O)c2cc(Cl)cc(NC(=O)OCc3ccccc3)c2)c(F)c1 29.5
10) O=C(Nc1cc(Cl)cc(C(=O)Nc2nc3c(s2)CCNC3)c1)OCc1ccccc1 48
11) Cn1nc(CCN)nc1NC(=O)c1cc(Cl)cc(NC(=O)OCc2ccccc2)c1 28.1
12) NCc1cc(F)cc(NC(=O)c2cc(Cl)cc(NC(=O)OCc3ccccc3)c2)c1 5.26
13) C[C@H](N)c1cccc(NC(=O)c2cc(Cl)cc(NC(=O)OCc3ccccc3)c2)c1 12.3
14) Cc1ccc(NC(=O)c2cc(Cl)cc(NC(=O)OCc3ccccc3)c2)cc1CN 9.81
15) NC12CCC(CNC(=O)c3cc(Cl)cc(NC(=O)OCc4ccccc4)c3)(CC1)OC2 29.7
16) O=C(Nc1cc(Cl)cc(C(=O)Nc2n[nH]c3c2CNC3)c1)OCc1ccccc1 36.1
